Recorded shrunken log2 fold change values for a group of sequences are listed next.
Tested on: Escherichia coli TOP10
assay_summary: shrunken log2 fold change of peptide-encoding DNA abundance (4.5 h post-induction vs induction); higher = less antimicrobial activity (less host growth inhibition)
test_context: time post-induction: 4.5 h; library: site-saturation at positions 5, 18, 19, 20
Reply: number alone, nothing else.

Reference set, count: 7
1. RRIRHRPPRLPRPRPRPLKRPRP : -0.00686
2. RRIRKRPPRLPRPRPRPIMCPRP : -0.0176
3. RRIRRRPPRLPRPRPRPNDIPRP : -0.349
4. RRIRPRPPRLPRPRPRPIVDPRP : 0.0804
5. RRIRRRPPRLPRPRPRPKCSPRP : 0.504
6. RRIRQRPPRLPRPRPRPWWLPRP : 0.27
7. RRIRRRPPRLPRPRPRPVAYPRP : 0.263

Continue with the sequence presented below.
Form field: shrunken log2 fold change recorded for RRIRDRPPRLPRPRPRPDWFPRP with Escherichia coli TOP10 (enter value) -0.0209

----------
System: Escherichia coli TOP10
assay_summary: shrunken log2 fold change of peptide-encoding DNA abundance (4.5 h post-induction vs induction); higher = less antimicrobial activity (less host growth inhibition)
test_context: time post-induction: 4.5 h; library: site-saturation at positions 5, 18, 19, 20
property: shrunken log2 fold change

1. RRIRHRPPRLPRPRPRPMFTPRP : -0.102
2. RRIRARPPRLPRPRPRPKGSPRP : 0.199

Which shrunken log2 fold change is reported for this sequence? RRIRQRPPRLPRPRPRPPVPPRP 0.197

Which shrunken log2 fold change is reported for this sequence? RRIRNRPPRLPRPRPRPSQDPRP -0.102

----------
Test system: Escherichia coli TOP10
assay_summary: shrunken log2 fold change of peptide-encoding DNA abundance (4.5 h post-induction vs induction); higher = less antimicrobial activity (less host growth inhibition)
test_context: time post-induction: 4.5 h; library: site-saturation at positions 5, 18, 19, 20
property: shrunken log2 fold change
Reply: number alone, nothing else.

Reference set, count: 5
1. RRIRGRPPRLPRPRPRPWERPRP : 0.0531
2. RRIRFRPPRLPRPRPRPFMVPRP : -0.654
3. RRIRERPPRLPRPRPRPKEEPRP : -0.000921
4. RRIRARPPRLPRPRPRPATWPRP : 0.37
5. RRIRCRPPRLPRPRPRPDRFPRP : 0.0616

Which shrunken log2 fold change is reported for this sequence? RRIRLRPPRLPRPRPRPFWDPRP 0.184

----------
Test system: Escherichia coli TOP10;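 further: peptides expressed intracellularly from a pBAD plasmid library in pooled LB shake-flask culture, induced with 0.3% L-arabinose, DNA abundance read by NGS, three biological replicates, DESeq2 with apeglm shrinkage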
assay_summary: shrunken log2 fold change of peptide-encoding DNA abundance (4.5 h post-induction vs induction); higher = less antimicrobial activity (less host growth inhibition)
test_context: time post-induction: 4.5 h; library: site-saturation at positions 5, 18, 19, 20
property: shrunken log2 fold change
Reply: number alone, nothing else.

Reference set, count: 3
1) RRIRVRPPRLPRPRPRPMDLPRP : 0.156
2) RRIRFRPPRLPRPRPRPTSEPRP : 0.0114
3) RRIRPRPPRLPRPRPRPICPPRP : -0.17

Form field: shrunken log2 fold change recorded for RRIRKRPPRLPRPRPRPMYQPRP with Escherichia coli TOP10 (enter value) 0.056

Form field: shrunken log2 fold change recorded for RRIRSRPPRLPRPRPRPKYGPRP with Escherichia coli TOP10 (enter value) -0.884

Form field: shrunken log2 fold change recorded for RRIRSRPPRLPRPRPRPTMEPRP with Escherichia coli TOP10 (enter value) 0.317

Form field: shrunken log2 fold change recorded for RRIRSRPPRLPRPRPRPNEDPRP with Escherichia coli TOP10 (enter value) -0.0395

Form field: shrunken log2 fold change recorded for RRIRQRPPRLPRPRPRPANDPRP with Escherichia coli TOP10 (enter value) -0.103

Form field: shrunken log2 fold change recorded for RRIRPRPPRLPRPRPRPNYQPRP with Escherichia coli TOP10 (enter value) -0.293

Form field: shrunken log2 fold change recorded for RRIRARPPRLPRPRPRPIYTPRP with Escherichia coli TOP10 (enter value) -0.387

Form field: shrunken log2 fold change recorded for RRIRWRPPRLPRPRPRPAWYPRP with Escherichia coli TOP10 (enter value) 0.0415

Form field: shrunken log2 fold change recorded for RRIRHRPPRLPRPRPRPQLNPRP with Escherichia coli TOP10 (enter value) -0.593

Form field: shrunken log2 fold change recorded for RRIRFRPPRLPRPRPRPLHLPRP with Escherichia coli TOP10 (enter value) -0.166

Form field: shrunken log2 fold change recorded for RRIRNRPPRLPRPRPRPWAEPRP with Escherichia coli TOP10 (enter value) 0.125

Form field: shrunken log2 fold change recorded for RRIRIRPPRLPRPRPRPIAVPRP with Escherichia coli TOP10 (enter value) -0.0939
